biological target: KRas^G12R (Homo sapiens, UniProt P01116, G12R); construct: […]; biotin (biotinylated); experiment: KRas binding assay (TR-FRET displacement of Cy5 labelled tracer)
Sequence (P01116 1-169 isoform P01116-2 G12R): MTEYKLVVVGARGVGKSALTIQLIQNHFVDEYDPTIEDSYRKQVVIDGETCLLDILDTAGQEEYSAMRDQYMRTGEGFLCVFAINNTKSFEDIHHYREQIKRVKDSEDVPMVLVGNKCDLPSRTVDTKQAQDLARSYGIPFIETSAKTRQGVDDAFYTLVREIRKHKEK
pIC50: −log10 of the molar value.
Tag: Fulfilled if measured pIC50 is not below 8, Not fulfilled if it is.

Given the entry Oc1cc(N2CCc3c(nc(OC[C@@]45CCCN4C[C@H](F)C5)nc3N3CC4CC(O)CC3C4)C2)c2c(Cl)c(F)ccc2c1 (single isomer, unassigned) [Example 77] , answer whether its pIC50 meets or surpasses 8. Not fulfilled

Evaluate CCc1cccc2cccc(N3CCc4c(nc(OCC56CCCN5CCC6)nc4NC4CCNC(=O)C4)C3)c12 (stereo not shown) [Example 153] : pIC50 at minimum 8? Not fulfilled

Quick check: does CC1(O)COCCN(c2nc(OC[C@@]34CCCN3C[C@H](F)C4)nc3c2CCN(c2cc(O)cc4ccc(F)c(Cl)c24)C3)C1 (stereo partly shown) [Example 74] have pIC50 greater than or equal to 8? Fulfilled

Test whether the compound CCc1c(F)ccc2cc(O)cc(N3CCc4c(nc(OC[C@@]56CCCN5C[C@H](F)C6)nc4N4CCCn5nc(N)cc5C4)C3)c12 [Example 18] records pIC50 of 8 or higher. Fulfilled

Given CCc1c(F)ccc2cc(O)cc(N3CCc4c(nc(OC[C@@]56CCCN5C[C@H](F)C6)nc4N4CCCC5(CC(=O)N5)C4)C3)c12 (stereo partly shown) [Example 21] , state whether its pIC50 is at least 8. Fulfilled

Does the compound CCc1cccc2cccc(N3CCc4c(nc(OCC56CCCN5CCC6)nc4N4CCCC(c5nnc6n5CCC6)C4)C3)c12 (stereo not shown) [Example 106] have recorded pIC50 that is 8 or more? Not fulfilled

# check: pIC50 of CCc1cccc2cccc(N3CCc4c(nc(OCC56CCCN5CCC6)nc4N4CCCCC(CO)C4)C3)c12 (stereo not shown) [Example 38] is greater than or equal to 8 Not fulfilled

# check: pIC50 of CCc1cccc2cccc(N3CCc4c(nc(OCC56CCCN5CCC6)nc4N4CCCCCC4)C3)c12 [Example 49] is greater than or equal to 8 Not fulfilled

// inclusive: pIC50 at least 8? input: CCc1c(F)ccc2cc(O)cc(N3CCc4c(nc(OC[C@@]56CCCN5C[C@H](F)C6)nc4NCc4cccnc4N)C3)c12 [Example 17] Fulfilled

// inclusive: pIC50 at least 8? input: CCc1c(F)ccc2cc(O)cc(N3CCc4c(nc(OC[C@@]56CCCN5C[C@H](F)C6)nc4N4CC5C(=O)NC(=O)C5C4)C3)c12 (stereo partly shown) [Example 24] Fulfilled
